Recorded protein stability index by entry
B1: RHOBTB2 (parent)
chain: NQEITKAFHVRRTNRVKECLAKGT

- Variants of: B1
- assayExplanation: protein stability index of a GFP-peptide fusion (GPS, HEK-293T) (PSI 1-6); higher = more stable;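 note: lentivirally expressed fusions sorted by FACS into six bins by GFP to DsRed ratio, PSI derived from sequencing read proportions per bin multiplied by bin number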
- conditionNotes: c terminus: a fixed tail appended
# answer = number (no unit)

> print(dat)
   variantdescription  measurement
1                C19W         2.35
2                K17D         3.64
3                R12P          3.5
4                R15Q         3.87

-- ask Field request: protein stability index | item: N14C
-- reply 1.88

-- ask Moving on to the next variant: K6S
-- reply 2.77

-- ask Moving on to the next variant: F8Y
-- reply 3.37

-- ask Moving on to the next variant: T13G
-- reply 2.49

-- ask Moving on to the next variant: T5C
-- reply 2.04

-- ask Moving on to the next variant: T24G
-- reply 2.92

-- ask Moving on to the next variant: H9L
-- reply 2.77

These entries and their values trace back to the supplement of paper PMC10567573.
